Listing: cell viability/% of selected compounds
# System: P388 mouse leukemia cells
# stated_conditions: 92 h
Where a SMILES comes first, the peptide text is derived from it. [ ]: non-standard residue; d: D form. The star is where a group is joined. NHCH2CH2OH = OCCN*; For = O=C*

# compound, cell viability/% [%]
records = [
    ("CNC(=O)C[C@@H](NC(=O)[C@H](Cc1c[nH]c2ccccc12)NC(=O)[C@H](NC(=O)[C@H](Cc1c[nH]c2ccccc12)NC(=O)[C@H](NC(=O)[C@H](Cc1c[nH]c2ccccc12)NC(=O)[C@@H](CC(C)C)NC(=O)[C@@H](NC(=O)[C@H](NC(=O)[C@H](C)NC(=O)[C@H](NC(=O)[C@H](C)NC(=O)CNC(=O)[C@@H](NC=O)C(C)C)C(C)C)C(C)C)C(C)C)C(C)C)C(C)C)C(=O)N[C@@H](Cc1c[nH]c2ccccc12)C(=O)NCCO [compound 7271] (For-VGA[dV]A[dV]V[dL]W[dV]W[dV]W[dD](NHMe)W-NHCH2CH2OH)", 10.6),
    ("CNC(=O)C[C@@H](NC(=O)[C@H](Cc1c[nH]c2ccccc12)NC(=O)[C@H](NC(=O)[C@H](Cc1c[nH]c2ccccc12)NC(=O)[C@H](NC(=O)[C@H](Cc1c[nH]c2ccccc12)NC(=O)[C@@H](CC(C)C)NC(=O)[C@@H](NC(=O)[C@H](NC(=O)[C@H](C)NC(=O)[C@H](NC(=O)[C@H](C)NC(=O)CNC(=O)[C@@H](NC=O)C(C)C)C(C)C)C(C)C)C(C)C)C(C)C)C(C)C)C(=O)N[C@@H](Cc1c[nH]c2ccccc12)C(=O)NCCO [compound 12691] (For-VGA[dV]A[dV]V[dL]W[dV]W[dV]W[dD](NHMe)W-NHCH2CH2OH)", 100.0),
    ("CNC(=O)C[C@@H](NC(=O)[C@H](Cc1c[nH]c2ccccc12)NC(=O)[C@H](NC(=O)[C@@H](NC(=O)[C@@H](CC(C)C)NC(=O)[C@H](C)NC(=O)[C@@H](CC(C)C)NC(=O)[C@H](C)NC(=O)CNC(=O)[C@@H](NC=O)C(C)C)C(C)C)C(C)C)C(=O)N[C@@H](Cc1c[nH]c2ccccc12)C(=O)N[C@H](CC(C)C)C(=O)N[C@@H](Cc1c[nH]c2ccccc12)C(=O)N[C@@H](C(=O)N[C@@H](Cc1c[nH]c2ccccc12)C(=O)NCCO)C(C)C [compound 5091] (For-VGA[dL]A[dL]V[dV]W[dD](NHMe)W[dL]W[dV]W-NHCH2CH2OH)", 100.0),
    ("CC(C)C[C@@H](NC(=O)[C@H](Cc1c[nH]c2ccccc12)NC(=O)[C@H](NC(=O)[C@H](Cc1c[nH]c2ccccc12)NC(=O)[C@@H](CC(C)C)NC(=O)[C@H](Cc1c[nH]c2ccccc12)NC(=O)[C@H](NC(=O)[C@@H](NC(=O)[C@H](NC(=O)[C@H](C)NC(=O)[C@H](NC(=O)[C@H](C)NC(=O)CNC(=O)[C@@H](NC=O)C(C)C)C(C)C)C(C)C)C(C)C)C(C)C)C(C)C)C(=O)N[C@@H](Cc1c[nH]c2ccccc12)C(=O)NCCO [compound 9293] (For-VGA[dV]A[dV]V[dV]W[dL]W[dV]W[dL]W-NHCH2CH2OH)", 4.3),
]

src = paper PMC7531004
